Source listed as paper PMC9494668.

System: Streptococcus faecalis ATCC 29212
Sorting guide: entries reporting MIC beneath 30 µg/mL go in the MET pile, the rest go in the NOT MET pile.

COc1cc(OC)c2cc(C(=O)NCCCN3CCOCC3)cc(O)c2c1 | NOT MET
COc1cc(OC)c2c(O)cc(C(=O)NCc3ccc(Cl)cc3)cc2c1 | MET
COc1ccc(CNC(=O)c2cc(O)c3c(OC)cc(OC)cc3c2)cc1 | NOT MET
O=C(O)c1cn(C2CC2)c2cc(N3CCNCC3)c(F)cc2c1=O [Cipro, ciprofloxacin, reference compound] | MET
COc1cc(OC)c2cc(C(=O)NCc3ccc(Br)cc3)cc(O)c2c1 | NOT MET
COc1cc(OC)c2cc(C(=O)NCc3ccc(C)cc3)cc(O)c2c1 | NOT MET
COc1ccc(CNC(=O)c2cc(O)c3cc(OC)cc(OC)c3c2)cc1 | NOT MET
COc1cc(OC)c2c(O)cc(C(=O)NCc3ccc(C)cc3)cc2c1 | NOT MET
COc1cc(OC)c2cc(C(=O)NCc3ccc(Cl)cc3)cc(O)c2c1 | NOT MET
COc1cc(OC)c2c(O)cc(C(=O)NCCCN3CCOCC3)cc2c1 | NOT MET
COc1cc(OC)c2c(O)cc(C(=O)NCc3ccc(Br)cc3)cc2c1 | NOT MET

----------
Test system: H69PR human small cell lung cancer cell line
experimental_protocol: MTT cytotoxicity, H69PR
Type: cell-based
protocol_conditions: 48 h, read-out: Anticancer activity IC50, H69PR
pIC50: −log10 of the molar value.
measurement_name: pIC50

COc1cc(OC)c2cc(C(=O)NCCCN3CCOCC3)cc(O)c2c1 | 4.28
COc1ccc(CNC(=O)c2cc(O)c3cc(OC)cc(OC)c3c2)cc1 | 4.53
COc1cc(OC)c2c(O)cc(C(=O)NCCCN3CCOCC3)cc2c1 | 4.27
COc1ccc(CNC(=O)c2cc(O)c3c(OC)cc(OC)cc3c2)cc1 | 4.55
COc1cc(OC)c2c(O)cc(C(=O)NCc3ccc(Br)cc3)cc2c1 | 4.67
COc1cc(OC)c2c(O)cc(C(=O)NCc3ccc(C)cc3)cc2c1 | 4.55
COc1cc(OC)c2cc(C(=O)NCc3ccc(Cl)cc3)cc(O)c2c1 | 4.59
CC(=O)O[C@H]1C(=O)[C@@]2(C)[C@H]([C@H](OC(=O)c3ccccc3)[C@]3(O)C[C@H](OC(=O)[C@H](O)[C@@H](NC(=O)c4ccccc4)c4ccccc4)C(C)=C1C3(C)C)[C@]1(OC(C)=O)CO[C@@H]1C[C@@H]2O [PTX, paclitaxel, reference compound] | 5.14

----------
Tested on: H69PR human small cell lung cancer cell line
experimental_protocol: MTT cytotoxicity, H69PR
Assay type: cell-based
protocol_conditions: 48 h, read-out: Anticancer activity IC50, H69PR
Listed here: items and their measured IC50.
measurement_name: IC50 (µM)

COc1cc(OC)c2cc(C(=O)NCc3ccc(C)cc3)cc(O)c2c1 | 34.2
COc1cc(OC)c2c(O)cc(C(=O)NCc3ccc(Cl)cc3)cc2c1 | 12.8
COc1cc(OC)c2cc(C(=O)NCc3ccc(Br)cc3)cc(O)c2c1 | 23
